Each entry below lists one item and its recorded viability at 24 h, 125 µg/ml value.
assay: Cell viability assay (MTT), VERO; format: cell-based, Cercopithecus aethiops; settings: African green monkey (Cercopithecus aethiops), VERO kidney epithelial cells, 125.0 µg/ml
Kindly provide the numeric value in % only, without the unit symbol.

| molecule | result value |
| --- | --- |
| C/C(=N\Nc1nc(-c2ccc([N+](=O)[O-])cc2)cs1)c1ccc(Nc2nc(N)nc(N)n2)cc1 [Compound 4h] | 104 |
| C/C(=N\Nc1nc(-c2ccc(Br)cc2)cs1)c1ccc(Nc2nc(N)nc(N)n2)cc1 [Compound 4d] | 112 |
| C/C(=N\Nc1nc(-c2ccc(I)cc2)cs1)c1ccc(Nc2nc(N)nc(N)n2)cc1 [Compound 4e] | 113 |
| C/C(=N\NC(N)=S)c1ccc(Nc2nc(N)nc(N)n2)cc1 [Compound 3] | 89.2 |
| C/C(=N\Nc1nc(-c2ccc(Cl)cc2)cs1)c1ccc(Nc2nc(N)nc(N)n2)cc1 [Compound 4b] | 113 |

Give the measured viability at 24 h, 125 µg/ml of C/C(=N\Nc1nc(-c2ccc(C)cc2)cs1)c1ccc(Nc2nc(N)nc(N)n2)cc1 [Compound 4c] .
109

What do we get for C/C(=N\Nc1nc(-c2ccc(F)cc2)cs1)c1ccc(Nc2nc(N)nc(N)n2)cc1 [Compound 4a] ?
100

What do we get for C/C(=N\Nc1nc(-c2ccccc2)cs1)c1ccc(Nc2nc(N)nc(N)n2)cc1 [Compound 4k] ?
113

====

system: Toxoplasma gondii BK strain; test: T. gondii tachyzoite intracellular proliferation in VERO host cells ([3H]uracil incorporation); type: cell-based; details: Toxoplasma gondii; 15.6 µg/ml, VERO host cells
endpoint label: activity at 15.6 µg/mL (%)
# output: bare number, implied unit %

For orientation, consider the following solved cases.
| input smiles | unit text | activity at 15.6 µg/mL |
| --- | --- | --- |
| C/C(=N\Nc1nc(-c2ccc(Br)cc2)cs1)c1ccc(Nc2nc(N)nc(N)n2)cc1 | % | 75.2 |
| C/C(=N\Nc1nc(-c2ccc([N+](=O)[O-])cc2)cs1)c1ccc(Nc2nc(N)nc(N)n2)cc1 | % | 85.7 |
| C/C(=N\Nc1nc(-c2ccc(Cl)c(Cl)c2)cs1)c1ccc(Nc2nc(N)nc(N)n2)cc1 | % | 45.7 |
| C/C(=N\Nc1nc(-c2ccc(I)cc2)cs1)c1ccc(Nc2nc(N)nc(N)n2)cc1 | % | 80.7 |
| C/C(=N\Nc1nc(-c2ccc(C)cc2)cs1)c1ccc(Nc2nc(N)nc(N)n2)cc1 | % | 86.2 |

Let's switch to this compound now.
What does the data say about its activity at 15.6 µg/mL? Entry: C/C(=N\NC(N)=S)c1ccc(Nc2nc(N)nc(N)n2)cc1
64.6

====

Measured Viability VERO accompanies every entry in the list below.
tested on: VERO cells; assay: Cell viability assay (MTT), VERO; assay type: cell-based, Cercopithecus aethiops; conditions: 7.8 µg/ml, 24 h
Dear colleague, please return just the value in %, with no unit written.

Consider the reported Viability VERO for these molecules:
| molecule | unit text | result value |
| --- | --- | --- |
| CC(=O)Nc1ccc(-c2csc(N/N=C(\C)c3ccc(Nc4nc(N)nc(N)n4)cc3)n2)cc1 [Compound 4g] | % | 98.14 |
| C/C(=N\Nc1nc(-c2cc3ccccc3oc2=O)cs1)c1ccc(Nc2nc(N)nc(N)n2)cc1 [Compound 4f] | % | 104.39 |
| C/C(=N\Nc1nc(-c2ccc(NS(C)(=O)=O)cc2)cs1)c1ccc(Nc2nc(N)nc(N)n2)cc1 [Compound 4j] | % | 89.25 |

Turning to the following molecule.
Recorded Viability VERO for C/C(=N\Nc1nc(-c2ccc3[nH]c(=O)oc3c2)cs1)c1ccc(Nc2nc(N)nc(N)n2)cc1 [Compound 4l] , please?
91.03

====

system: VERO cells; assay: Cell viability assay (MTT), VERO; assay type: cell-based, Cercopithecus aethiops; conditions: 0.9 µg/ml, 24 h
endpoint label: Viability VERO (%)
Reply numerically in %, unit not repeated.

Give the measured Viability VERO of C/C(=N\Nc1nc(-c2ccc3[nH]c(=O)oc3c2)cs1)c1ccc(Nc2nc(N)nc(N)n2)cc1 .
97.13

Could you do the same for C/C(=N\Nc1nc(-c2cc3ccccc3oc2=O)cs1)c1ccc(Nc2nc(N)nc(N)n2)cc1 , please?
97.81

Input C/C(=N\Nc1nc(-c2ccc(NS(C)(=O)=O)cc2)cs1)c1ccc(Nc2nc(N)nc(N)n2)cc1
79.82

And for CC(=O)Nc1ccc(-c2csc(N/N=C(\C)c3ccc(Nc4nc(N)nc(N)n4)cc3)n2)cc1 ?
93.72

====

tested on: Toxoplasma gondii BK strain; assay: T. gondii tachyzoite intracellular proliferation in VERO host cells ([3H]uracil incorporation); assay type: cell-based; settings: VERO host cells, GraphPad Prism curves
endpoint label: IC50 (50% inhibition of T. gondii proliferation in vitro) (mg/L)
Provide only the numeric value, understood in mg/L.

| molecule | result value |
| --- | --- |
| C/C(=N\Nc1nc(-c2ccc(NS(C)(=O)=O)cc2)cs1)c1ccc(Nc2nc(N)nc(N)n2)cc1 [Compound 4j] | 59.87 |
| C/C(=N\Nc1nc(-c2ccc3[nH]c(=O)oc3c2)cs1)c1ccc(Nc2nc(N)nc(N)n2)cc1 [Compound 4l] | 23.09 |
| CC(=O)Nc1ccc(-c2csc(N/N=C(\C)c3ccc(Nc4nc(N)nc(N)n4)cc3)n2)cc1 [Compound 4g] | 18.70 |

# query: IC50 (50% inhibition of T. gondii proliferation in vitro) of entry C/C(=N\Nc1nc(-c2cc3ccccc3oc2=O)cs1)c1ccc(Nc2nc(N)nc(N)n2)cc1 [Compound 4f]
21.53

====

Listing: viability at 24 h, 62.5 µg/ml of selected compounds
assay: Cell viability assay (MTT), VERO; assay type: cell-based, Cercopithecus aethiops; details: African green monkey (Cercopithecus aethiops), VERO kidney epithelial cells, 62.5 µg/ml
State just the number; it will be interpreted in %.

Record excerpt, results attached:
| input smiles | unit text | viability at 24 h, 62.5 µg/ml |
| --- | --- | --- |
| C/C(=N\Nc1nc(-c2ccc(F)cc2)cs1)c1ccc(Nc2nc(N)nc(N)n2)cc1 | % | 105 |
| C/C(=N\NC(N)=S)c1ccc(Nc2nc(N)nc(N)n2)cc1 | % | 95.1 |
| C/C(=N\Nc1nc(-c2ccc(I)cc2)cs1)c1ccc(Nc2nc(N)nc(N)n2)cc1 | % | 117 |

With those in mind, consider the next compound.
Can you look up the measured viability at 24 h, 62.5 µg/ml of C/C(=N\Nc1nc(-c2ccccc2)cs1)c1ccc(Nc2nc(N)nc(N)n2)cc1 for me?
113

====

assay: Cell viability assay (MTT), L929; type: cell-based, Mus musculus; settings: mouse, L929 fibroblast cells, 15.6 µg/ml
Examples of molecules with documented viability at 24 h, 15.6 µg/ml follow.
Unit % implied. Number only.

// returns reported viability at 24 h, 15.6 µg/ml for input C/C(=N\Nc1nc(-c2ccc(C)cc2)cs1)c1ccc(Nc2nc(N)nc(N)n2)cc1 [Compound 4c]
102

====

test: Cell viability assay (MTT), L929; format: cell-based, Mus musculus; conditions: mouse, L929 fibroblast cells, 62.5 µg/ml
viability at 24 h, 62.5 µg/ml values by entry
# number only, unit % dropped from output

Need viability at 24 h, 62.5 µg/ml, item C/C(=N\Nc1nc(-c2ccc(Br)cc2)cs1)c1ccc(Nc2nc(N)nc(N)n2)cc1
115

Proceed to C/C(=N\Nc1nc(-c2ccc(I)cc2)cs1)c1ccc(Nc2nc(N)nc(N)n2)cc1
109

Please give the result for C/C(=N\Nc1nc(-c2ccc(F)cc2)cs1)c1ccc(Nc2nc(N)nc(N)n2)cc1 too.
115

Now give it for C/C(=N\Nc1nc(-c2ccccc2)cs1)c1ccc(Nc2nc(N)nc(N)n2)cc1 too.
116

Quick one: C/C(=N\Nc1nc(-c2ccc(Cl)cc2)cs1)c1ccc(Nc2nc(N)nc(N)n2)cc1
119

Also check C/C(=N\NC(N)=S)c1ccc(Nc2nc(N)nc(N)n2)cc1
111

Next up: C/C(=N\Nc1nc(-c2ccc([N+](=O)[O-])cc2)cs1)c1ccc(Nc2nc(N)nc(N)n2)cc1
118

Field entry: C/C(=N\Nc1nc(-c2ccc(Cl)c(Cl)c2)cs1)c1ccc(Nc2nc(N)nc(N)n2)cc1
100

Input C/C(=N\Nc1nc(-c2ccc(C)cc2)cs1)c1ccc(Nc2nc(N)nc(N)n2)cc1
106

====

assay: Cell viability assay (MTT), L929; type: cell-based, Mus musculus; conditions: mouse, L929 fibroblast cells, 125.0 µg/ml
Form field: viability at 24 h, 125 µg/ml (one value per entry).
Quick reminder: number only, in %, skip the unit.

Looking for the measured viability at 24 h, 125 µg/ml of C/C(=N\Nc1nc(-c2ccc(F)cc2)cs1)c1ccc(Nc2nc(N)nc(N)n2)cc1 , can you help?
111

Input C/C(=N\NC(N)=S)c1ccc(Nc2nc(N)nc(N)n2)cc1
110

Same again, this time with C/C(=N\Nc1nc(-c2ccc(I)cc2)cs1)c1ccc(Nc2nc(N)nc(N)n2)cc1
101

Follow-up entry: C/C(=N\Nc1nc(-c2ccccc2)cs1)c1ccc(Nc2nc(N)nc(N)n2)cc1
130
